From: patent US11214803B2

# test: Tolerability in Balb/c mice, body and organ weights (Example 14)
# Assay type: in vivo
# conditions-used: male Balb/c mice, 50 mg/kg s.c. twice a week for four weeks (8 treatments), end of study (day 27)
Strand notation (5' to 3'): a small letter for the sugar, then the base; units joined by * are phosphorothioate-linked, units joined directly phosphodiester-linked; [ ] holds rarer units or linkages, { } end groups; capitals alone tell only the bases. k = constrained ethyl (cEt); [5mC] = 5-methylcytosine; d = 2'-deoxy (DNA)
endpoint-label: Kidney weight (g)
Numbers only here, please. The scale is g.

As a guide, the following entries are already answered.
[
  {
    "substance": "958589 (kG*kT*kA*dA*dA*dG*dG*dA*dA*dG*dA*dT*d[5mC]*kT*k[5mC]*k[5mC]; antisense) [compound 958589]",
    "Kidney weight / g": 0.37
  },
  {
    "substance": "958497 (kA*kT*kA*dT*dG*dG*dA*dA*dA*dT*dT*dG*dT*k[5mC]*kT*k[5mC]) [compound 958497]",
    "Kidney weight / g": 0.35
  },
  {
    "substance": "958622 (kG*kA*kT*dA*dT*dT*d[5mC]*d[5mC]*dG*d[5mC]*dA*dT*dT*kG*k[5mC]*k[5mC]; antisense) [compound 958622]",
    "Kidney weight / g": 0.33
  },
  {
    "substance": "958534 (kT*kT*k[5mC]*dA*dG*d[5mC]*dA*dT*dA*dG*dA*dA*dG*kT*kA*kG; antisense) [compound 958534]",
    "Kidney weight / g": 0.32
  },
  {
    "substance": "958739 (kA*kG*k[5mC]*dA*dA*dT*dA*dG*dA*dG*dT*dA*dA*k[5mC]*k[5mC]*kA; antisense) [compound 958739]",
    "Kidney weight / g": 0.36
  }
]

Switching to the query record.
Would you mind telling me what Kidney weight value was observed for 958596 (kA*kG*k[5mC]*dA*dG*dT*dT*dA*dA*dG*d[5mC]*dA*d[5mC]*kT*kT*kT; antisense) [compound 958596] ?
0.36

====

# Tested on: Yap1 mRNA
# test: Antisense inhibition of human Yap1 in A-431 cells by cEt gapmers, single dose (Example 1, RTS4814)
# Type: cell-based
# conditions-used: Table 2; A-431 cells, free uptake, 2,000 nM, approximately 48 hours, RTS4814; Yap1 mRNA relative to untreated control cells
Strand notation (5' to 3'): a small letter for the sugar, then the base; units joined by * are phosphorothioate-linked, units joined directly phosphodiester-linked; [ ] holds rarer units or linkages, { } end groups; capitals alone tell only the bases. k = constrained ethyl (cEt); [5mC] = 5-methylcytosine; d = 2'-deoxy (DNA)
Let's look at some substances and their measured YAP1 (% UTC).

As a guide, the following entries are already answered.
[
  {
    "substance": "715566 (kT*kA*kG*dG*dA*dT*dA*dA*dA*dT*dG*dA*dA*kT*kT*kA; antisense) [Compound 715566]",
    "endpoint-label": "YAP1 (% UTC)",
    "experimental-value": "94 % UTC"
  },
  {
    "substance": "715413 (k[5mC]*kA*kT*dG*d[5mC]*dT*dG*dT*dG*dG*dA*dG*dT*k[5mC]*kA*kG; antisense) [Compound 715413]",
    "endpoint-label": "YAP1 (% UTC)",
    "experimental-value": "96 % UTC"
  },
  {
    "substance": "715434 (antisense kT*k[5mC]*kT*dT*dG*dT*dT*d[5mC]*dT*dT*dA*dT*dG*kG*kT*kT) [Compound 715434]",
    "endpoint-label": "YAP1 (% UTC)",
    "experimental-value": "31 % UTC"
  }
]

Would you mind telling me what YAP1 (% UTC) value was observed for 715503 (antisense k[5mC]*k[5mC]*k[5mC]*d[5mC]*dA*dG*dA*d[5mC]*dT*dT*dA*dA*dT*kT*k[5mC]*kA) [Compound 715503] ?
136 % UTC
